Test system: 22Rv1 cells
assay-summary: Cell-based assay, anti-proliferative activity (Cell Counting Kit-8, 72 hours)
Design: species or system human
experimental-parameters: Homo sapiens, 22Rv1, 72 h, read-out: IC50 (μM) (22Rvl)
Counter-ions that a name gives are not always drawn.

# compound, IC50
data = [
    ("CN(C)C[C@H]1CC[C@H](Nc2c(C(=O)C3CC3)cnc3ccc(-c4cc(F)c(O)c(Cl)c4)nc23)CC1 [Example 5, dihydrochloride]", "0.0057 µM"),
    ("CC(=O)c1cnc2ccc(-c3cc(F)c(O)c(Cl)c3)nc2c1N[C@H]1CC[C@H](NC(=O)[C@@H]2CCCN2)CC1 [Example 76, dihydrochloride]", "0.073 µM"),
    ("CC(=O)c1cnc2ccc(-c3c(C)n[nH]c3C)nc2c1N[C@H]1CC[C@H](CN(C)C)CC1 [Example 58, trihydrochloride]", "6.1 µM"),
    ("CN(C)CCOc1ccc(Nc2c(S(C)(=O)=O)cnc3ccc(-c4cc(Cl)c(O)c(Cl)c4)nc23)cn1 [Example 24, hydrochloride]", "1.8 µM"),
    ("COc1cc(-c2ccc3ncc(S(C)(=O)=O)c(Nc4ccc(OCCN(C)C)nc4)c3n2)cc(Cl)c1O [Example 26, dihydrochloride]", "4.1 µM"),
    ("CC(=O)c1cnc2ccc(-c3cnc(C#N)nc3)nc2c1N[C@H]1CC[C@H](CN(C)C)CC1", "0.24 µM"),
    ("CC(=O)c1cnc2ccc(-c3cc(Cl)c(O)c(Cl)c3)nc2c1Nc1cnc(N2CCC(N)C2)nc1 (stereo not shown) [Example 41, trihydrochloride]", "0.052 µM"),
    ("CN(C)[C@H]1CC[C@H](Nc2c(S(C)(=O)=O)cnc3ccc(-c4cc(F)c(O)c(Cl)c4)nc23)CC1 [Example 32, dihydrochloride]", "0.046 µM"),
    ("CC(=O)c1cnc2ccc(-c3cc(Cl)c(O)c(Cl)c3)nc2c1Nc1ccc(N2CCC[C@H](N)C2)nc1 [Example 71, trihydrochloride]", "0.014 µM"),
    ("CC(=O)c1cnc2ccc(Cl)nc2c1N[C@H]1CC[C@H](CN(C)C)CC1", "5 µM"),
    ("CN(C)[C@H]1CC[C@H](Nc2c(S(C)(=O)=O)cnc3ccc(-c4cc(Cl)c(O)c(Cl)c4)nc23)CC1 [Example 15, dihydrochloride]", "0.026 µM"),
    ("CN(C)Cc1ccc(Nc2c(S(C)(=O)=O)cnc3ccc(-c4cc(Cl)c(O)c(Cl)c4)nc23)cc1 [Example 16, dihydrochloride]", "0.17 µM"),
    ("CC(=O)c1cnc2ccc(-c3cc(Cl)c(O)c(Cl)c3)nc2c1N[C@H]1CC[C@H](CN2CCCC2)CC1 [Example 61, dihydrochloride]", "0.011 µM"),
]

Source listed as patent US9067937B2.
